targetOrTestSystem: ScNbp2
methodDescription: SPOT peptide array binding signal intensity (averaged, normalized) (arbitrary units (background-subtracted, floor 0; scale differs between SH3 domains)); higher = stronger binding of the SH3 domain to the peptide
readoutName: SPOT peptide array binding signal intensity
Enter the number alone.

Qu. // fetch SPOT peptide array binding signal intensity given entry PSRRAPLQLPQLVNK
Ans. 17

Qu. Please indicate SPOT peptide array binding signal intensity recorded for YHSRRHPLALGFKYV
Ans. 102

Qu. Provide measured SPOT peptide array binding signal intensity value, entry: KKEKKPPKIPKKVYT
Ans. 2

Qu. Report SPOT peptide array binding signal intensity for LKQRFFLMFPKSIIW
Ans. 252

Qu. Dear colleague, please send me the reported SPOT peptide array binding signal intensity for GERSRPLVISILSSA when you can.
Ans. 71.5
